# Test system: Lefty1
# ASSAY DETAILS: Lefty1 binders on small-molecule microarrays, primary screen, biochemical, small-molecule microarray, 635/667 nm fluorescence (AID 1139)
# CONDITION CONTEXT: small-molecule microarray binding, fluorescence 635/667; higher = more signal
Each record's composite z-score is compared with lo (below 0.4), med (0.4 to below 0.8), hi (0.8 or more) to give its class.

# COMPOUND, MEASUREMENT TARGET, ASSIGNED CATEGORY
rows = [
    ("COC(=O)CC=C[C@@H](C)[C@@H](C=NOC[C@H]1O[C@H](c2ccccc2)C=C[C@@H]1Oc1ccc(OC)cc1)NS(=O)(=O)c1ccc(C)cc1", "Lefty1", "lo"),
    ("CSCC[C@@H]1NC(=O)CC=C[C@@H](C)COC(=O)[C@@H](C)COC1=O", "Lefty1", "lo"),
    ("CCCCc1nc2c(c3c1C[C@H](C)OC3)CN(CCOc1ccccc1)CC2", "Lefty1", "hi"),
    ("COc1cccc([C@H]2Oc3ccc(OC)cc3C(=NOC[C@@H](O)[C@H]3O[C@@H]4OC(C)(C)O[C@@H]4[C@H]3O)[C@@H]2O)c1", "Lefty1", "hi"),
    ("CCOC(=O)[C@H](Cc1ccccc1)NC(=O)CCC1CC(OC(=O)NCCc2ccc(F)cc2)CC2(CCCC(COC(=O)NCc3ccccc3)O2)O1 (some centres undefined)", "Lefty1", "hi"),
    ("COCOc1ccc(Br)cc1C(=O)[C@@H]1O[C@H]1c1cccc(OC)c1", "Lefty1", "lo"),
    ("COc1ccc(COC(=O)NN=C2C[C@@H](O)[C@@H](O)[C@@H]3[C@@H]4C(=O)N(C5CCCCC5)C(=O)[C@@H]4CC[C@H]23)cc1", "Lefty1", "lo"),
    ("COC(=O)[C@@H]1CC[C@H](C)[C@@H](c2ccc(C)cc2)N1C(=O)c1ccc(C=NO[C@H](C)c2cn([C@H](CO)Cc3ccccc3)nn2)cc1", "Lefty1", "hi"),
    ("Cn1c(=O)n2n(c1=O)[C@H]1[C@H](O)[C@@H]3O[C@@H]3C(=NOCc3ccccc3)[C@H]1CC2", "Lefty1", "lo"),
    ("C[C@@H](c1ccccc1)N1C(=O)[C@H]2[C@H]3[C@H](O)[C@H](O)CC(=NOCc4ccccc4)[C@H]3CC[C@H]2C1=O", "Lefty1", "lo"),
    ("C#CCCCON=C1C[C@@H](O)[C@@H](O)[C@@H]2[C@@H]3C(=O)N(c4cccc(Oc5ccccc5)c4)C(=O)[C@@H]3CC[C@H]12", "Lefty1", "lo"),
    ("CC(C)=CCCC(C)=CCON=C1C[C@@H](O)[C@@H](O)[C@@H]2[C@@H]3C(=O)N(c4ccc(F)cc4F)C(=O)[C@@H]3CC[C@@H]12", "Lefty1", "hi"),
    ("COC(=O)CC=C[C@@H](C)[C@@H]1C=C[C@H](O)[C@@H](CO)O1", "Lefty1", "med"),
    ("CCOC(=O)[C@H](CC(C)C)NC(=O)CCC1CC(OC(=O)NCc2cccc3ccccc23)CC2(CCCC(COC(=O)NCC3CCCCC3)O2)O1 (some centres undefined)", "Lefty1", "med"),
    ("CON=C(C)CCC(=O)OC[C@H]1O[C@H](c2ccccc2)C=C[C@@H]1Oc1ccc(OC)cc1", "Lefty1", "med"),
    ("CCN1C(=O)[C@H]2[C@H]3[C@H](O)[C@H](O)CC(=O)[C@@H]3CC[C@H]2C1=O", "Lefty1", "med"),
    ("CO[C@@H]1COC(=O)[C@@H](C)NC(=O)CC=C[C@@H](C)[C@H](NS(=O)(=O)c2ccc(C)cc2)COC(=O)[C@H](C)NC(=O)CC=C[C@H]1C", "Lefty1", "hi"),
    ("CCC(=O)[C@@]1(O)C(=O)N2C(=C3C(=O)OCC[C@@H]31)N(Cc1ccccc1)C(C)=C(C(=O)OC)[C@H]2c1ccccc1", "Lefty1", "med"),
    ("COC(=O)CC=C[C@@H](C)[C@@H](C=NO[C@@H](C)c1cn([C@H](CO)Cc2ccccc2)nn1)NS(=O)(=O)c1ccc(C)cc1", "Lefty1", "med"),
    ("CO[C@H]1COC(=O)CC=C[C@H](C)COC(=O)[C@@H](C)NC(=O)CC=C[C@@H]1C", "Lefty1", "hi"),
    ("CC(C)CON=C1C[C@@H](O)[C@@H](O)[C@@H]2[C@@H]3C(=O)N(C4CCCCC4)C(=O)[C@@H]3CC[C@H]12", "Lefty1", "hi"),
    ("CC(C)=CCCC(C)=CCON=C1C[C@@H](O)[C@@H](O)[C@@H]2[C@@H]3C(=O)N(Cc4ccccc4)C(=O)[C@@H]3CC[C@H]12", "Lefty1", "med"),
    ("CO[C@H](C1CCCCC1)[C@H](C)C=CCC(=O)OCCCc1ccccc1", "Lefty1", "lo"),
    ("O=C1C[C@@H](O)[C@@H](O)[C@@H]2[C@@H]3C(=O)N(C[C@@H]4CCCO4)C(=O)[C@@H]3CC[C@@H]12", "Lefty1", "med"),
    ("CCN1C(=O)[C@H]2[C@H]3[C@H](O)[C@H](O)CC(=NOC[C@H]4O[C@H](c5ccccc5)C=C[C@@H]4Oc4ccc(OC)cc4)[C@@H]3CC[C@H]2C1=O", "Lefty1", "hi"),
    ("C#CCCCON=C1C[C@@H](O)[C@@H](O)[C@@H]2[C@@H]3C(=O)N(C(C)(C)C)C(=O)[C@@H]3CC[C@H]12", "Lefty1", "lo"),
    ("C[C@@H](c1ccccc1)N1C(=O)[C@H]2[C@H]3[C@H](O)[C@H](O)CC(=NO[C@@H]4O[C@H](CO)[C@@H](O)[C@H](O)[C@H]4O)[C@@H]3CC[C@H]2C1=O", "Lefty1", "lo"),
    ("CO[C@@H]1COC(=O)[C@@H](C)COC(=O)[C@@H](C)NC(=O)CC=C[C@@H]1C", "Lefty1", "hi"),
]

----------
Measured composite z-score by item
# Test system: Chordin-like protein 2 (CHRDL2)
# ASSAY DETAILS: CHRDL2 small-molecule binders, primary screen, biochemical, small-molecule microarray, 635 nm fluorescence (AID 1126);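 note: printed compound slides probed with Chrdl2 protein at 4 µg/mL for 1 h at 4 C; score merges 667 nm emission intensity with signal to noise over three replicate slides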
# CONDITION CONTEXT: small-molecule microarray binding, fluorescence 635 nm; higher = more signal

# MOLECULE, composite z-score
measured = [
    ("CO[C@H]1COC(=O)CC=C[C@@H](C)[C@H](OC)COC(=O)CCC[C@@H]1C", 1.41),
    ("CCOC(=O)[C@H](CC(C)C)NC(=O)CCC1CC(OC(=O)NCCc2ccc(F)cc2)CC2(CCCC(COC(=O)NCCc3ccccc3OC)O2)O1 (stereo partly specified)", 0.337),
    ("CC[C@@H](c1ccccc1)n1c(=O)n2n(c1=O)[C@H]1[C@H](O)[C@@H]3O[C@@H]3C(=O)[C@H]1CC2", 0.673),
    ("COC(=O)CC=C[C@@H](C)[C@@H](C=NO[C@H](C)c1cn([C@H](CO)Cc2ccccc2)nn1)OC", 0.944),
    ("C=CC1=C[C@H](O)[C@@H]2O[C@@H]2C12OCCCO2", 0.202),
    ("COc1ccc(O[C@H]2C=C[C@@H](c3ccccc3)O[C@@H]2COC(=O)CCC(C)=NO[C@@H]2O[C@H](COC(C)=O)[C@@H](OC(C)=O)[C@H](OC(C)=O)[C@H]2OC(C)=O)cc1", 0.786),
    ("CO[C@H]1COC(=O)CC=C[C@@H](C)[C@H](OC)COC(=O)[C@@H]2CCCN2C(=O)CC=C[C@@H]1C", 1.32),
    ("Cc1ccc(S(=O)(=O)N[C@H]2COC(=O)CC=C[C@@H](C)COC(=O)CC=C[C@@H]2C)cc1", 1.23),
    ("CCOC(=O)[C@H](Cc1ccccc1)NC(=O)OC1CC(CCC2CC(CC)=NO2)OC2(CCCC(COC(=O)NCCC(C)C)O2)C1 (stereo partly specified)", 0.139),
    ("CSCC[C@@H]1NC(=O)CC=C[C@@H](C)COC(=O)[C@@H](C)COC1=O", 0.683),
    ("CCOC(=O)[C@H](CC(C)C)NC(=O)CCC1CC(OC(=O)NCc2cccc3ccccc23)CC2(CCCC(COC(=O)NCCc3ccc(Cl)cc3)O2)O1 (stereo partly specified)", 0.439),
    ("CCOC(=O)C1=NO[C@]2(C=C(Br)C3(OCCCO3)[C@H]3O[C@H]32)C1", -0.31),
    ("CO[C@H]1COC(=O)[C@@H](C)COC(=O)[C@@H](OCc2ccccc2)C=C[C@@H]1C", 0.159),
    ("CCC(=O)[C@@]1(O)C(=O)N2C(=C3C(=O)OCC[C@@H]31)N(Cc1ccccc1)C(C)=C(C(=O)OC)[C@H]2c1ccccc1", 0.627),
    ("CCOC(=O)[C@H](CC(C)C)NC(=O)CCC1CC(OC(=O)NCCc2ccc(F)cc2)CC2(CCCC(COC(=O)NCC(c3ccccc3)c3ccccc3)O2)O1 (stereo partly specified)", 0.609),
    ("CCCCc1nc2c(c3c1C[C@H](C)OC3)CN(CCOc1ccccc1)CC2", 0.726),
]
